System: Bacillus subtilis DB104 (SP-AmyQ fusion secretion)
assay-text: AmyQ secretion efficiency, weighted average sort bin (1 = best secretion, 10 = worst) (bin number (weighted average, 1-10)); higher = lower secretion efficiency
readout-kind: AmyQ secretion efficiency
// keep it numeric: no unit symbol after the value

Please review the following examples before continuing.
MRPVFPLILSAVLFLSCFSVSTFFGARQTEASASKR = 2.65
MSGGGILALFVLSLGLLSFMVTPVSAASK = 2.53
MHLIRAAGAVCLAVVLIAGCRFNEDQHQWEGENT = 5.73
MLCVMMLLFSAIAKKRRKRAQAKDQ = 7.12
MKRSIMLSNIIILLVSLRVWMVFLMNWVTPDRKTAAAAVY = 6.91

*Q* I would be grateful if you could share the reported AmyQ secretion efficiency for MRKWYFILLAGVLTSVILAFVYDKTKANDD .
*A* 6.75

*Q* I would be grateful if you could share the reported AmyQ secretion efficiency for MRKKKRHSRLIVLLFFSFFGVQPIHAKKQ .
*A* 7.01

*Q* I would be grateful if you could share the reported AmyQ secretion efficiency for MKKKRRRVLMAFIICLSLILSVLAAPPSGAKAESV .
*A* 2

*Q* I would be grateful if you could share the reported AmyQ secretion efficiency for MSLMIVFMTLPLLIVCLAFSSFSASARAASE .
*A* 4.54
